test system: Mus musculus; test: Antagonist activity against haloperidol-induced catalepsy in po dosed mouse; assay type: functional
property name: ED50

Example entries begin here.
CN1CCN(C(=O)c2ccc3c(c2)-c2nc(N)nc(-c4ccccc4)c2C3=O)CC1 = 0.4 mg/kg
CN1CCN(C(=O)c2ccc3c(c2)-c2nc(N)nc(-c4ccc(F)cc4)c2C3=O)CC1 = < 1 mg/kg
CN1CCC(N(C)C(=O)c2ccc3c(c2)-c2nc(N)nc(-c4ccccc4)c2C3=O)CC1 = < 1 mg/kg
CC(C)N1CCC(NC(=O)c2ccc3c(c2)-c2nc(N)nc(-c4ccccc4)c2C3=O)CC1 = 0.4 mg/kg
Nc1nc(-c2ccccc2)c2c(n1)-c1cc(OCCN3CCOCC3)ccc1C2=O = < 1 mg/kg

Provide the reported ED50 (system: Mus musculus) for CCN(CC)CCOc1ccc2c(c1)-c1nc(N)nc(-c3ccccc3)c1C2=O
< 1 mg/kg

Provide the reported ED50 (system: Mus musculus) for CCN(CC)CCN(C)C(=O)c1ccc2c(c1)-c1nc(N)nc(-c3ccccc3)c1C2=O
< 1 mg/kg

* * *

A collection of molecules and their measured Ki
molecular target: Adenosine receptor A2a (Homo sapiens); assay: Antagonistic activity at adenosine A2A receptor
Sequence (P29274 whole entry): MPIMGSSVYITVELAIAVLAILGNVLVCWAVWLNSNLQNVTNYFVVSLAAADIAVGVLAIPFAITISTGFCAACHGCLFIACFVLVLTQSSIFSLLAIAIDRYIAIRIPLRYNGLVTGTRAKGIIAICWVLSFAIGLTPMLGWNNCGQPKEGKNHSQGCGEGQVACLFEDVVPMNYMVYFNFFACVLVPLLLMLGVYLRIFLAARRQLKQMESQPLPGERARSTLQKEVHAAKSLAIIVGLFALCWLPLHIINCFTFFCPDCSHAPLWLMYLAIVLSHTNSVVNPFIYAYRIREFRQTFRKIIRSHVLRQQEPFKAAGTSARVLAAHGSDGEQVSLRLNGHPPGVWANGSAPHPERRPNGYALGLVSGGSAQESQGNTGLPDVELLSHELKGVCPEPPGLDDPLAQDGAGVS
// units = nM; emit number, no label

Example entries begin here.
Nc1nc(-c2ccccc2)c2c(n1)-c1cc(OCCN3CCCC3)ccc1C2=O = 19.3
Nc1nc(-c2ccccc2)c2c(n1)-c1cc(C(=O)N3CCNCC3)ccc1C2=O = 32.5

Look up and report measured Ki for this entry: CCN1CCN(C(=O)c2ccc3c(c2)-c2nc(N)nc(-c4ccc(F)cc4)c2C3=O)CC1
32.1

Look up and report measured Ki for this entry: CN1CCCN(c2ccc3c(c2)-c2nc(N)nc(-c4ccccc4)c2C3=O)CC1
10

Look up and report measured Ki for this entry: Nc1nc(-c2ccccc2)c2c(n1)-c1cc(C(=O)NCCN3CCOCC3)ccc1C2=O
28.4
